Kindly supply the reported % inhibition at 10 nM values for the records listed here.
# Test target: human plasma kallikrein (human, UniProt P03952 20-390; P03952 391-638)
# Sequence (P03952 20-390, chain 1 of 2): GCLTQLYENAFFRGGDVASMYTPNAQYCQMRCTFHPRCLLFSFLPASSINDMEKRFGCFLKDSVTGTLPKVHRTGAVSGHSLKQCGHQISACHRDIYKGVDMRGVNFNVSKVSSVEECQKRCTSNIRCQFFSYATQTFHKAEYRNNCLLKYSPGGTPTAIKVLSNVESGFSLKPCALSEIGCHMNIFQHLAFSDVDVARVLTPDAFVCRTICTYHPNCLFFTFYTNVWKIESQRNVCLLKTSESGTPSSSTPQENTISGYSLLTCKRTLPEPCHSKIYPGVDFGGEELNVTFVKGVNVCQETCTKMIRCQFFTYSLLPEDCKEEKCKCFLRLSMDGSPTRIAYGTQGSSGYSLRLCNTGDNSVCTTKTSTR
# Sequence (P03952 391-638, chain 2 of 2): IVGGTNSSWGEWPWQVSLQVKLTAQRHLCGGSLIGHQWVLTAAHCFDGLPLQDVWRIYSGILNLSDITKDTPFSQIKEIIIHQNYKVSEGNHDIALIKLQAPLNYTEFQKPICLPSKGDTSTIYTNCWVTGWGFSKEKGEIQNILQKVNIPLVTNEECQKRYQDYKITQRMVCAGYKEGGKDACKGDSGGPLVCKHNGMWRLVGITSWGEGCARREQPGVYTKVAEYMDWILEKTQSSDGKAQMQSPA
# Assay protocol: cell-based or functional assay
Answers are plain numbers, in %.

Past entries and their recorded results:
| Binder | % inhibition at 10 nM, % |
| --- | --- |
| M198-E09 (Fab, V domains shown) VH: EVQLLESGGGLVQPGGSLRLSCAASGFTFSIYDMNWVRQAPGKGLEWVSSIYPSGGRTRYADSVKGRFTISRDNSKNTLYLQMNSLRAEDTAVYYCAYRRTGIPRRDAFDIWGQGTMVTVSS VL: DIQMTQSPSTLSASVGDRVTITCRASQSISSWLAWYQQKPGKAPNLLIYKASTLESGVPSRFSGSGSGTEFTLTISSLQPDDFATYYCQQYNTYWTFGQGTKVEIK | 93.1 |
| M202-F06 (Fab, V domains shown) VH: EVQLLESGGGLVQPGGSLRLSCAASGFTFSHYIMMWVRQAPGKGLEWVSGIYSSGGITVYADSVKGRFTISRDNSKNTLYLQMNSLRAEDTAVYYCAYRRTGVPRWDAFDIWGQGTMVTVSS VL: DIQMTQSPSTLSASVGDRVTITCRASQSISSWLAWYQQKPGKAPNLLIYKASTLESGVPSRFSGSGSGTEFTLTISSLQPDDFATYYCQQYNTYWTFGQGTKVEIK | 84.2 |

Req: What % inhibition at 10 nM value was documented for this binder, M202-D09 (Fab, V domains shown, Tested as Fab; printed HC runs into CH1) VH: EVQLLESGGGLVQPGGSLRLSCAASGFTFSHYIMMWVRQAPGKGLEWVSGIYSSGGITVYADSVKGRFTISRDNSKNTLYLQMNSLRAEDTAVYYCAYRRIGVPRRDSFDIWGQGTMVTVSS VL: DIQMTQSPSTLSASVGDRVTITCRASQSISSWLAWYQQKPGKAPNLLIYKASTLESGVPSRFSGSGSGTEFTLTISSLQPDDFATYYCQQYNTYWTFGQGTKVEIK ?
Resp: 95
